Protocol description: Cytotoxicity against HUVEC assessed as survival at 10 uM after 48 hrs by MTT assay relative to control
Format: cell-based
Conditions: human, HUVEC cells; read-out: Survival
Grouping by measured viability at 48 h, 10 µM is done with the following cut points: Low (below 80%), Mid (80% to below 90%), High (90% or more)

Observe how each entry below is paired with its result.
CCOc1ccc2c(C)cc(=O)oc2c1COC(=O)c1ccc(OC)c(OC)c1; Mid
CCOc1ccc2c(C)cc(=O)oc2c1COC(=O)c1c(F)cccc1F; Mid
COc1cc(OC)c(C(=O)OCc2c(OC(C)C)ccc3c(C)cc(=O)oc23)cc1OC; Low

Exam item: assign "CCOc1ccc2c(C)cc(=O)oc2c1COC(=O)/C=C/c1ccc(Cl)cc1" to the correct category. High

Pick a category. Item: "Cc1cc(=O)oc2c(COC(=O)c3cccc(N(C)C)c3)c(OC(C)C)ccc12" Mid

Consider "CCOc1ccc2c(C)cc(=O)oc2c1COC(=O)c1cccc(N(C)C)c1" . To which viability at 48 h, 10 µM class does it belong? High

# classify by viability at 48 h, 10 µM band: "COc1cc(C(=O)OCc2c(OC(C)C)ccc3c(C)cc(=O)oc23)cc(OC)c1OC" Low

GET /class?item= "CCOc1ccc2c(C)cc(=O)oc2c1COC(=O)c1cc(OC)c(OC)c(OC)c1" High

Lab log: "COc1ccc(/C=C/C(=O)OCc2c(OC(C)C)ccc3c(C)cc(=O)oc23)cc1" — assign viability at 48 h, 10 µM category High

Kindly state the category for this compound: "Cc1cc(=O)oc2c(COC(=O)c3ccc(C(C)(C)C)cc3)c(OC(C)C)ccc12" Mid
